test: Pharmacokinetics of NA and NUA in plasma after single oral doses of Niacin extended-release/Simvastatin tablets in healthy Chinese volunteers
Format: in vivo
applied_conditions: both sexes, human, plasma, po, 2 tablets (1000 mg/20 mg), mean ± S.D., n = 12, read-out: K e (converted)
recorded_metric: k el
The reply must contain the numeric value and, after it, the unit.

Task: Entry O=C(O)c1cccnc1 has what k el?
Result: 0.000119 s⁻¹

----------
test: Pharmacokinetics of NA and NUA in plasma after single oral doses of Niacin extended-release/Simvastatin tablets in healthy Chinese volunteers
Format: in vivo
applied_conditions: both sexes, human, in vivo, po, 1 tablet (500 mg/10 mg), mean ± S.D., n = 12
recorded_metric: AUC(0-inf)

Task: Return reported AUC(0-inf); argument: O=C(O)CNC(=O)c1cccnc1
Result: 2180 ng·h/mL
